# target entity: Integrin alpha-IIb/beta-3 (Homo sapiens, UniProt P05106+P08514)
# experiment description: Binding affinity against alpha IIb beta-3 integrin in the presence of L-736622.
# Sequence (P05106 27-788 limits assumed): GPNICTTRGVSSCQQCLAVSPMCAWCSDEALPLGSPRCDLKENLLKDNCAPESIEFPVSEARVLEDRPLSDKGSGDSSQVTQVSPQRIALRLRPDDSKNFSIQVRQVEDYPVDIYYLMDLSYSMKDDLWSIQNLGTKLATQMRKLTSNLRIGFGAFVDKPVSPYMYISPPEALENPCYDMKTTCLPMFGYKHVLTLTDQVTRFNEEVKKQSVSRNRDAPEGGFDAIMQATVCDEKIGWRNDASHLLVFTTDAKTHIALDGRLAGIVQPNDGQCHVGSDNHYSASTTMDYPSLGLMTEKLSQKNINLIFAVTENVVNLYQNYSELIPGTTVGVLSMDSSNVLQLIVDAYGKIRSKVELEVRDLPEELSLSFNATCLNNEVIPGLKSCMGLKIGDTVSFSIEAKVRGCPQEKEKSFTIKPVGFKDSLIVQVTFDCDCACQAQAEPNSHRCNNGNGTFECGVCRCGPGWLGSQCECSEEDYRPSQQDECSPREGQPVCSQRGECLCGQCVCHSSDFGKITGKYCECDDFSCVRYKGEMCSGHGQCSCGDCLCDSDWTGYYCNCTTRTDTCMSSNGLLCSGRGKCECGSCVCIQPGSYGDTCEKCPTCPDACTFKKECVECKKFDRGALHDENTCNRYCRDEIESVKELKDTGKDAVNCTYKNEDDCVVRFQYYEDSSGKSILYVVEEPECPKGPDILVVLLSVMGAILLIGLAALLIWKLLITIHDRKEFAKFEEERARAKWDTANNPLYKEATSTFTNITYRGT
# Sequence (P08514 32-887 limits assumed): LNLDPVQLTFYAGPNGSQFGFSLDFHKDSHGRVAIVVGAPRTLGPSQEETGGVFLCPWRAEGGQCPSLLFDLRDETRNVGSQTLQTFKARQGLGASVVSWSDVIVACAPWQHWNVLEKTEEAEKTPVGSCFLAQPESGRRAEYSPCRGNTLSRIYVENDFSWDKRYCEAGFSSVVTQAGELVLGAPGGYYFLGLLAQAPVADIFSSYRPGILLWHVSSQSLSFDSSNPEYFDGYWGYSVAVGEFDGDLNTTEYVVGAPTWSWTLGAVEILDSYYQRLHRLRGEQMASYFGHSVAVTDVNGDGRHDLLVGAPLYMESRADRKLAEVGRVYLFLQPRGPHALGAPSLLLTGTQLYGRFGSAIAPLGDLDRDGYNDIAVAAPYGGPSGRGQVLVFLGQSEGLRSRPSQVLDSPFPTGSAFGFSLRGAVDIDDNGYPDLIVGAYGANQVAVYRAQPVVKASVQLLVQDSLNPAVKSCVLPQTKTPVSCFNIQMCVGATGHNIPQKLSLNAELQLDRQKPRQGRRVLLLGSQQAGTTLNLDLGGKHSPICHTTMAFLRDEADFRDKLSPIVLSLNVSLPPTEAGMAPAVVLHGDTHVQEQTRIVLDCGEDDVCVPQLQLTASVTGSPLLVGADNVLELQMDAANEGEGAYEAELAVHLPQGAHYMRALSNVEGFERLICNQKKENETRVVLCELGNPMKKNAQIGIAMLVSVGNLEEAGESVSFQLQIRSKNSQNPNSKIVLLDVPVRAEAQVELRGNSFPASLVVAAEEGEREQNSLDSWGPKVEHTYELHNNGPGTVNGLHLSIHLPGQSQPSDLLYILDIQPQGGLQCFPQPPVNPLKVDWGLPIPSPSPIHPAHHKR
# Sequence (P08514 891-1039 limits assumed): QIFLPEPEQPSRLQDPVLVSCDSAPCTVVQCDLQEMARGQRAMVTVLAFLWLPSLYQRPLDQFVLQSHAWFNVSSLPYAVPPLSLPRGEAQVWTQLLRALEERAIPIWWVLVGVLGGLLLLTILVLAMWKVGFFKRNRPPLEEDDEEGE
attribute measured: pKd
Numbers only, as −log10 of the molar value.

Record excerpt, results attached:
-- ask Give the measured pKd of `CCCCCS(=O)(=O)N[C@@H](CNC(=O)c1ccc2c(c1)C(=O)N(CCC1CCNCC1)C2)C(=O)O` .
-- reply 8.12

-- ask Would you mind telling me what pKd value was observed for `O=C(NC[C@H](NS(=O)(=O)c1ccccc1C(=O)O)C(=O)O)c1ccc2c(c1)C(=O)N(CCC1CCNCC1)C2` ?
-- reply 8.19

-- ask # input compound: `CCCCNS(=O)(=O)N[C@@H](CNC(=O)c1ccc2c(c1)C(=O)N(CCC1CCNCC1)C2)C(=O)O` ; wanted: its pKd
-- reply 7.68

-- ask Sample `O=C(NC[C@H](NS(=O)(=O)c1ccccc1)C(=O)O)c1ccc2c(c1)C(=O)N(CCC1CCNCC1)C2` — what was its pKd?
-- reply 8.43

-- ask If you can, please state the reported pKd value of `O=C(O)CCNC(=O)c1ccc2c(c1)C(=O)N(CCC1CCNCC1)C2` .
-- reply 7.00

Please state, for each entry, its recorded pKd.
1. O=C(NCc1ccccc1)N[C@@H](CNC(=O)c1ccc2c(c1)C(=O)N(CCC1CCNCC1)C2)C(=O)O
2. CCCCCC(=O)N[C@@H](CNC(=O)c1ccc2c(c1)C(=O)N(CCC1CCNCC1)C2)C(=O)O
3. CCOCCS(=O)(=O)N[C@@H](CNC(=O)c1ccc2c(c1)C(=O)N(CCC1CCNCC1)C2)C(=O)O

-- reply
8.22
8.19
8.29

For every item in the list below, what is its measured pKd?
1. CCCCS(=O)(=O)N[C@@H](CNC(=O)c1ccc2c(c1)C(=O)N(CCC1CCNCC1)C2)C(=O)O (stereo in doubt)
2. O=C(NC[C@H](NS(=O)(=O)c1cccnc1)C(=O)O)c1ccc2c(c1)C(=O)N(CCC1CCNCC1)C2
3. CC(C)CS(=O)(=O)N[C@@H](CNC(=O)c1ccc2c(c1)C(=O)N(CCC1CCNCC1)C2)C(=O)O

-- reply
8.06
8.44
8.12

###

Provide the reported IC50 of each item.
# Organism: Homo sapiens
# experiment description: In vitro inhibition of ADP-induced human platelet aggregation.
# Type: functional
Numbers only, in nM.

In the examples that follow, each entry is paired with its recorded IC50.
-- ask Data request, read-out IC50, for CCCCS(=O)(=O)N[C@@H](CNC(=O)c1ccc2c(c1)C(=O)N(CCC1CCNCC1)C2)C(=O)O (stereo in doubt)
-- reply 14

-- ask Please look up its IC50: `CCCCNC(=O)N[C@@H](CNC(=O)c1ccc2c(c1)C(=O)N(CCC1CCNCC1)C2)C(=O)O`
-- reply 16

-- ask Would you mind telling me what IC50 value was observed for `O=C(NC[C@H](NS(=O)(=O)c1ccccc1C(=O)O)C(=O)O)c1ccc2c(c1)C(=O)N(CCC1CCNCC1)C2` ?
-- reply 15

Here is another compound to look at.
-- ask Entry `CS(=O)(=O)N[C@@H](CNC(=O)c1ccc2c(c1)C(=O)N(CCC1CCNCC1)C2)C(=O)O` has what IC50?
-- reply 14

###

So I've got a bunch of compounds here, and I need their pIC50 values.
# Organism: Homo sapiens
# experiment description: In vitro inhibition of ADP-induced human platelet aggregation.
# Format: functional
Answers are plain numbers, as −log10 of the molar value.

Field: pIC50. Fill in for each record below.
1. CCCCCS(=O)(=O)N[C@@H](CNC(=O)c1ccc2c(c1)C(=O)N(CCC1CCNCC1)C2)C(=O)O
2. CCOCCS(=O)(=O)N[C@@H](CNC(=O)c1ccc2c(c1)C(=O)N(CCC1CCNCC1)C2)C(=O)O

-- reply
8.05
8.10

State recorded pIC50 for all listed compounds.
1. CC(C)CS(=O)(=O)N[C@@H](CNC(=O)c1ccc2c(c1)C(=O)N(CCC1CCNCC1)C2)C(=O)O
2. O=C(NC[C@H](NS(=O)(=O)c1cccnc1)C(=O)O)c1ccc2c(c1)C(=O)N(CCC1CCNCC1)C2

-- reply
[8.05, 7.82]

###

# target entity: Integrin alpha-IIb/beta-3 (Homo sapiens, UniProt P05106+P08514)
# experiment description: Binding affinity against alpha IIb beta-3 integrin by [125I]-L-692,884 displacement.
# Assay type: protein-complex assay
attribute measured: ED50 (nM)
Give bare numbers, in nM.

Field: example entries. Status: answers known.
-- ask Bench note: what ED50 did `O=C(NC[C@H](NS(=O)(=O)Cc1ccccc1)C(=O)O)c1ccc2c(c1)C(=O)N(CCC1CCNCC1)C2` show?
-- reply 1.6

-- ask Request the reported ED50 associated with `O=C(NC[C@H](NS(=O)(=O)c1cccs1)C(=O)O)c1ccc2c(c1)C(=O)N(CCC1CCNCC1)C2`
-- reply 0.53

-- ask Requested read-out: ED50. Entry: `CCCCS(=O)(=O)N[C@@H](Cc1ccc(OCCCCC2CCNCC2)cc1)C(=O)O`
-- reply 0.97

Next up:
-- ask Give the measured ED50 of `CCCCNS(=O)(=O)N[C@@H](CNC(=O)c1ccc2c(c1)C(=O)N(CCC1CCNCC1)C2)C(=O)O` .
-- reply 2.8

###

# Organism: Homo sapiens
# experiment description: In vitro inhibition of ADP-induced human platelet aggregation.
# Format: functional
attribute measured: pIC50
One number for each entry, as −log10 of the molar value.

-- ask Which pIC50 value belongs to `CCCCCC(=O)N[C@@H](CNC(=O)c1ccc2c(c1)C(=O)N(CCC1CCNCC1)C2)C(=O)O` ?
-- reply 7.89

-- ask Which pIC50 is reported for this molecule? `CCCCS(=O)(=O)N[C@@H](Cc1ccc(OCCCCC2CCNCC2)cc1)C(=O)O`
-- reply 7.96

-- ask Would you kindly share the measured pIC50 for `O=C(NCc1ccccc1)N[C@@H](CNC(=O)c1ccc2c(c1)C(=O)N(CCC1CCNCC1)C2)C(=O)O` ?
-- reply 8.00

Here's the next entry for you.
-- ask Entry under review: `O=C(O)c1ccc(S(=O)(=O)N[C@@H](CNC(=O)c2ccc3c(c2)C(=O)N(CCC2CCNCC2)C3)C(=O)O)cc1` . Reported pIC50?
-- reply 8.15

###

Exercise: for every item that follows, state its recorded Kd.
# target entity: Integrin alpha-IIb/beta-3 (Homo sapiens, UniProt P05106+P08514)
# experiment description: Binding affinity against alpha IIb beta-3 integrin in the presence of L-736622.
Give bare numbers, in nM.

Here's what some known entries look like.
-- ask Request - read-out Kd | tested on Integrin alpha-IIb/beta-3 (Homo sapiens, UniProt P05106+P08514) | compound `CCCCNC(=O)N[C@@H](CNC(=O)c1ccc2c(c1)C(=O)N(CCC1CCNCC1)C2)C(=O)O`
-- reply 6.9

-- ask Look up Kd with Integrin alpha-IIb/beta-3 (Homo sapiens, UniProt P05106+P08514) for this compound: `O=C(O)c1ccc(S(=O)(=O)N[C@@H](CNC(=O)c2ccc3c(c2)C(=O)N(CCC2CCNCC2)C3)C(=O)O)cc1`
-- reply 15

-- ask What is its Kd for Integrin alpha-IIb/beta-3 (Homo sapiens, UniProt P05106+P08514)? Entry: `O=C(NC[C@H](NS(=O)(=O)c1cccs1)C(=O)O)c1ccc2c(c1)C(=O)N(CCC1CCNCC1)C2`
-- reply 7.7

-- ask Test system Integrin alpha-IIb/beta-3 (Homo sapiens, UniProt P05106+P08514); read-out Kd; what value for `CS(=O)(=O)N[C@@H](CNC(=O)c1ccc2c(c1)C(=O)N(CCC1CCNCC1)C2)C(=O)O` ?
-- reply 7.4

-- ask Any idea what Kd came out for CCCCS(=O)(=O)N[C@@H](CNC(=O)c1ccc2c(c1)C(=O)N(CCC1CCNCC1)C2)C(=O)O (stereo in doubt; 13) on Integrin alpha-IIb/beta-3 (Homo sapiens, UniProt P05106+P08514)?
-- reply 4.4

Next:
-- ask Form: Entry = `O=C(NC[C@H](NS(=O)(=O)Cc1ccccc1)C(=O)O)c1ccc2c(c1)C(=O)N(CCC1CCNCC1)C2` | System = Integrin alpha-IIb/beta-3 (Homo sapiens, UniProt P05106+P08514) | Kd = ____
-- reply 12
